B1: Unconventional myosin-Ie, residues 1051 to 1108; numbered along this chain, Q12965 (parent)
chain: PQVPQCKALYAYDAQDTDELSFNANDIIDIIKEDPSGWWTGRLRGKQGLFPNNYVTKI

Variants of: B1
procedure.text: abundance fitness (aPCA) (normalised: wild type 0, dead -1); higher = more abundant; growth selection in yeast, the domain comes from the species named
experimental.conditions: Homo sapiens
outcome.measure: abundance fitness
Please give only the number in your answer, with no unit.

Find the measured abundance fitness of F22Y and report it.
-0.714

Return abundance fitness (reported value) for this variant: D18S
0.009

Kindly indicate its recorded abundance fitness. Item: A24T
-0.012

Return reported abundance fitness. Input variant: D16T
-0.024

Output measured abundance fitness for this item: Q47I
-0.216

For the variant C6K , report abundance fitness.
-1

Tell me its abundance fitness given I30V as the entry.
0.058

Look up and report measured abundance fitness for this entry: F50V
-0.208

Check the records and state abundance fitness for L20I
-0.05

Respond only with abundance fitness recorded for T40A
-0.175

Note down abundance fitness recorded for T40Y
-0.07
